biological target: α4β2 nAChR (Homo sapiens (Human), UniProt P17787+P43681); assay: nAChR binding affinity, α4β2 subtype; conditions: Table 2; read-out: Ki α4β2
Sequence (P43681 29-627): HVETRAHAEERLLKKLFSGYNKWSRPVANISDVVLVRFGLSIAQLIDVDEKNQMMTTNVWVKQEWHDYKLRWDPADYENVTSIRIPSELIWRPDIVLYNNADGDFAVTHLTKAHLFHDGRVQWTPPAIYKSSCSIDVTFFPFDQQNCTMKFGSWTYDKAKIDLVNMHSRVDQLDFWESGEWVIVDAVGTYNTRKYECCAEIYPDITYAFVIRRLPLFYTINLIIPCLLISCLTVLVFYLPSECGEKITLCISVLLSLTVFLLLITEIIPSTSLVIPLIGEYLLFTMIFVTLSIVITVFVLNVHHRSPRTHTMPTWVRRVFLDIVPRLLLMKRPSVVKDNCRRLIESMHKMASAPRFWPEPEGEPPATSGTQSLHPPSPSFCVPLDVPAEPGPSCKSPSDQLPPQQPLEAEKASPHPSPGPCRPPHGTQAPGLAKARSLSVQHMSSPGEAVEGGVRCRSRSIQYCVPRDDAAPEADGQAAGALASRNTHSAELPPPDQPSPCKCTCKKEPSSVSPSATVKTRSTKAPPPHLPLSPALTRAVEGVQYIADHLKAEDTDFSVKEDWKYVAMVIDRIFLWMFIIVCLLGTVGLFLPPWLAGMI
Sequence (P17787 26-502): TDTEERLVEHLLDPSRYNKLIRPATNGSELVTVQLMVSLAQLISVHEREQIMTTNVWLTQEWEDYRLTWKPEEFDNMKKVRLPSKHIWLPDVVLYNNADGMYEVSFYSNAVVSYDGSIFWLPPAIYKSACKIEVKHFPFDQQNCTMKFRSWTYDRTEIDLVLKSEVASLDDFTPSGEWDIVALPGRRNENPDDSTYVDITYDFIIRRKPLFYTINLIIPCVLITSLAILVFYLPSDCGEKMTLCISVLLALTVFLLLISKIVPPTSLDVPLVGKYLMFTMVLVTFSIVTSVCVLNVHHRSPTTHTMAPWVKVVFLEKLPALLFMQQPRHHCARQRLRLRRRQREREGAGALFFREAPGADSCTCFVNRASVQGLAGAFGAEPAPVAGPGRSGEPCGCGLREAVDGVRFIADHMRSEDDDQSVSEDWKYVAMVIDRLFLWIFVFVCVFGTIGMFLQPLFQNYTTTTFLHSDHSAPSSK
pKi: −log10 of the molar value.
Tag: Met if measured pKi is not below 7, Not met if it is.

Data request: Is the recorded value of pKi equal to or greater than 7 for this molecule? Nc1nc2ccc(-c3ccc(OC4C5CCN(CC5)C4Cc4cccnc4)nn3)cc2s1 (centres unmarked) [Compound 12]
Data returned: Met

Data request: Is the recorded value of pKi equal to or greater than 7 for this molecule? c1cncc(C[C@@H]2[C@@H](Oc3nnc(-c4ccc5[nH]ccc5c4)s3)C3CCN2CC3)c1 (racemic) [Compound 16]
Data returned: Not met

Data request: Is the recorded value of pKi equal to or greater than 7 for this molecule? c1cncc(C[C@@H]2[C@@H](Oc3cnc(-c4ccc5[nH]ccc5c4)cn3)C3CCN2CC3)c1 (relative stereo) [Compound 9]
Data returned: Not met

Data request: Is the recorded value of pKi equal to or greater than 7 for this molecule? c1cncc(C[C@@H]2[C@@H](Oc3ccc(-c4ccc5[nH]ccc5c4)nn3)C3CCN2CC3)c1 [2R,3S-11]
Data returned: Not met

The reported measurements were obtained from patent US20250270203A1.
